assay: PK study of the 12 alkaloids in rat plasma after oral administration of ZJ and FZJ extract (LC–MS/MS); format: in vivo; conditions: rat, in vivo, po, 3.38 g/kg
Catalogue of compounds with associated AUC(0-inf)
Answer format: numeric, ng·h/mL implied, no suffix.

Recorded AUC(0-inf) (compound c1c2c(cc3c1OCO3)-c1cc3ccc4c(c3c[n+]1CC2)OCO4 [coptisine] ): 71.6

More entries:
Briefly, AUC(0-inf) measured for C[n+]1c2n(c(=O)c3ccccc31)CCc1c-2[nH]c2ccccc12 [dehydroevodiamine] : 537

Reported AUC(0-inf) ( COc1cc2c(cc1OC)-c1cc3ccc(OC)c(OC)c3c[n+]1CC2 [palmatine] ) = 96.6

---

This listing pairs compounds with measured Stability RE, 30 days at −20 °C.
experiment: Stability of analytes in rat plasma under storage conditions; format: physicochemical; conditions: rat plasma, low QC concentration, n = 6
Entry rule: numbers only, all in %.

# compound COc1cc2c(cc1OC)-c1cc3ccc4c(c3c[n+]1CC2)OCO4 [epiberberine] ; its Stability RE, 30 days at −20 °C = 13.92

Others:
Reported Stability RE, 30 days at −20 °C of O=c1c2c3c(ccc2cc2n1CCc1cc4c(cc1-2)OCO4)OCO3 [8-oxocoptisine] : 6.72

Given item COc1cc2c(cc1OC)C(=O)NCC2 [corydaldine] , the value recorded as its Stability RE, 30 days at −20 °C is 15.65

Entry C[n+]1c2n(c(=O)c3ccccc31)CCc1c-2[nH]c2ccccc12 [dehydroevodiamine] , Stability RE, 30 days at −20 °C reported as −6.34

// field: Stability RE, 30 days at −20 °C; key: c1c2c(cc3c1OCO3)-c1cc3ccc4c(c3c[n+]1CC2)OCO4 [coptisine] ; value = −11.58

Summary for this compound, O=C1NCCc2cc3c(cc21)OCO3 [noroxyhydrastinine] : Stability RE, 30 days at −20 °C is −8.89

For COc1cc2c(cc1OC)-c1cc3ccc4c(c3c(=O)n1CC2)OCO4 [8-oxoepiberberine] the compound record lists Stability RE, 30 days at −20 °C as −13.41

---

Collected log10 of Cmax values appear next to each entry.
experiment: PK study of the 12 alkaloids in rat plasma after oral administration of ZJ and FZJ extract (LC–MS/MS); assay type: in vivo; conditions: 3.38 g/kg; rat plasma, oral ZJ extract, mean ± SD, n = 6; read-out: Cmax
Hello, just confirming the data are log10 of Cmax with units of ng/mL.

Field log10 of Cmax (entry `COc1ccc2cc3[n+](cc2c1OC)CCc1cc2c(cc1-3)OCO2` ) reads 2.04

So, `COc1cc2c(cc1OC)C(=O)NCC2` ? Its log10 of Cmax was 1.01

Item: COc1cc2c(cc1OC)-c1cc3ccc4c(c3c(=O)n1CC2)OCO4 [8-oxoepiberberine] | log10 of Cmax: 0.38

Value of measured log10 of Cmax for the entry O=C1NCCc2cc3c(cc21)OCO3 [noroxyhydrastinine] : 1.47

Let us examine a further case.
Lab note: COc1cc2c(cc1OC)-c1cc3ccc4c(c3c[n+]1CC2)OCO4 [epiberberine] gave log10 of Cmax of 1.14

---

test: PK study of the 12 alkaloids in rat plasma after oral administration of ZJ and FZJ extract (LC–MS/MS); assay type: in vivo; conditions: rat, in vivo, po, 3.38 g/kg
The compounds listed here are annotated with their half-life.
Number in h, nothing else.

Example entries begin here.
Looking up `COc1cc2c(cc1OC)-c1cc3ccc(OC)c(OC)c3c[n+]1CC2` , I found its half-life recorded as 5.65

For record `c1c2c(cc3c1OCO3)-c1cc3ccc4c(c3c[n+]1CC2)OCO4` the listed half-life is 8.01

Kindly consider the entry below.
The compound identified as C[n+]1c2n(c(=O)c3ccccc31)CCc1c-2[nH]c2ccccc12 [dehydroevodiamine] registered its half-life at 3.21

---

# reported Tmax; entries follow
test: PK study of the 12 alkaloids in rat plasma after oral administration of ZJ and FZJ extract (LC–MS/MS); assay type: in vivo; details: 3.76 g/kg; rat plasma, oral FZJ extract; read-out: Tmax (converted)
Please reply with the bare figure in min and do not write the unit itself.

Value of Tmax reported for the compound Cn1c(=O)n(CCC2(O)C(=O)Nc3ccccc32)c(=O)c2ccccc21 (stereo not drawn) [wuchuyuamide-I] is 30

// Tmax lookup, compound = `COc1cc2c(cc1OC)C(=O)NCC2` , result: 30

Per the records, this compound ( `CCCCC=CCCCCCCCc1cc(=O)c2ccccc2n1C` ) has Tmax equal to 30

---

test: Stability of analytes in rat plasma under storage conditions; format: physicochemical; settings: room temperature 24 h, medium QC concentration, n = 6
Property measured: Stability RE, processed samples' stability (%)
Could you give me the number in %? Just the number is fine.

What the record says about COc1cc2c(cc1OC)-c1cc3ccc4c(c3c[n+]1CC2)OCO4 [epiberberine] : Stability RE, processed samples' stability is −8.85

Entry `c1c2c(cc3c1OCO3)-c1cc3ccc4c(c3c[n+]1CC2)OCO4` — recorded Stability RE, processed samples' stability = −2.14

Quick note, Stability RE, processed samples' stability for O=C1NCCc2cc3c(cc21)OCO3 [noroxyhydrastinine] landed at −0.19

// sample `COc1cc2c(cc1OC)C(=O)NCC2` , its Stability RE, processed samples' stability was −6.31

For record `O=c1c2c3c(ccc2cc2n1CCc1cc4c(cc1-2)OCO4)OCO3` the listed Stability RE, processed samples' stability is 10.68

Memo: `CCCCC=CCCCCCCCc1cc(=O)c2ccccc2n1C` , reported Stability RE, processed samples' stability: −14.47

---

assay: PK study of the 12 alkaloids in rat plasma after oral administration of ZJ and FZJ extract (LC–MS/MS); format: in vivo; conditions: 3.38 g/kg; rat plasma, oral ZJ extract; read-out: Tmax (converted)
Each item that follows carries a reported Tmax.
Give the value in h but do not write h after it.

The compound listed as `CCCCC=CCCCCCCCc1cc(=O)c2ccccc2n1C` shows Tmax equal to 1

get_value(item= O=C1NCCc2cc3c(cc21)OCO3 [noroxyhydrastinine] , readout=Tmax) returns 1.5

Others:
Item: `COc1ccc2cc3[n+](cc2c1OC)CCc1cc2c(cc1-3)OCO2` | Tmax: 1.5

---

assay: PK study of the 12 alkaloids in rat plasma after oral administration of ZJ and FZJ extract (LC–MS/MS); type: in vivo; conditions: rat, in vivo, po, 3.76 g/kg
# Tmax per entry
Report only the number, with the unit h understood.

The compound identified as COc1cc2c(cc1OC)-c1cc3ccc(OC)c(OC)c3c[n+]1CC2 [palmatine] registered its Tmax at 3

For this compound ( c1c2c(cc3c1OCO3)-c1cc3ccc4c(c3c[n+]1CC2)OCO4 [coptisine] ), measured Tmax is 3

With those in mind, consider the next compound.
Value of measured Tmax for the entry C[n+]1c2n(c(=O)c3ccccc31)CCc1c-2[nH]c2ccccc12 [dehydroevodiamine] : 1.5

---

assay: PK study of the 12 alkaloids in rat plasma after oral administration of ZJ and FZJ extract (LC–MS/MS); type: in vivo; settings: 3.76 g/kg; rat plasma, oral FZJ extract, mean ± SD, n = 6; read-out: AUC0→∞
Entry flag: rule met if AUC(0-inf) reaches 20 ng·h/mL; rule not met if it does not.

Is reported AUC(0-inf) greater than or equal to 20 ng·h/mL here: Cn1c(=O)n(CCC2(O)C(=O)Nc3ccccc32)c(=O)c2ccccc21 (stereo not drawn) [wuchuyuamide-I]
rule met

Test whether the compound `COc1ccc2cc3[n+](cc2c1OC)CCc1cc2c(cc1-3)OCO2` records AUC(0-inf) of 20 ng·h/mL or higher.
rule met

Does the reported AUC(0-inf) for COc1cc2c(cc1OC)-c1cc3ccc4c(c3c[n+]1CC2)OCO4 [epiberberine] fall at or above the 20 ng·h/mL mark?
rule not met

New cases:
Is the recorded value of AUC(0-inf) equal to or greater than 20 ng·h/mL for this compound? O=C1NCCc2cc3c(cc21)OCO3 [noroxyhydrastinine]
rule not met

Exam item: decide whether the reported AUC(0-inf) for `COc1cc2c(cc1OC)C(=O)NCC2` is at least 20 ng·h/mL.
rule not met

---

experiment: PK study of the 12 alkaloids in rat plasma after oral administration of ZJ and FZJ extract (LC–MS/MS); format: in vivo; settings: rat, in vivo, po, 3.38 g/kg
Property measured: Tmax (h)
I only need the number, in h, no unit after it.

// worked examples, Tmax included
Lab book: Tmax of C[n+]1c2n(c(=O)c3ccccc31)CCc1c-2[nH]c2ccccc12 [dehydroevodiamine] noted as 4

Entry `c1c2c(cc3c1OCO3)-c1cc3ccc4c(c3c[n+]1CC2)OCO4` , Tmax reported as 5

Continue with the next compound.
The measured Tmax associated with `COc1cc2c(cc1OC)-c1cc3ccc(OC)c(OC)c3c[n+]1CC2` reads 1.5
